Cited source for all entries: ChEMBL document CHEMBL1212851

Tested on: HCT-8
experimental-protocol: Cytotoxicity against human HCT8 cells
Assay type: functional, cell-based
Activity calls are given as the source filed them. The rule behind the calls is not given here.
quantity: Activity

{"columns": ["structure-as-smiles", "experimental-result"],
 "data": [
  ["O=C1C(c2ccc(O)c(O)c2)=C2C(=C(c3ccc(O)c(O)c3)C(=O)N2CCc2ccc(O)cc2)c2cc(O)c(O)cc21", "inactive"],
  ["O=C1C(c2ccc(O)c(OS(=O)(=O)O)c2)=c2c(c3c(n2CCc2ccc(O)cc2)=C(c2ccc(O)c(OS(=O)(=O)O)c2)C(=O)c2cc(O)c(O)cc2-3)-c2cc(O)c(O)cc21", "inactive"],
  ["O=C1C(c2ccc(O)c(O)c2)=c2c(c3c(n2CCc2ccc(O)cc2)=C(c2ccc(O)c(OS(=O)(=O)O)c2)C(=O)c2cc(O)c(O)cc2-3)-c2cc(O)c(O)cc21", "inactive"]
]}
